For each entry below, report its log10 of Kd value.
# Assay Target: T1, EsCas13d, nuclease-dead (Eubacterium siraeum, UniProt B0MS50, R295A;H300A;R849A;H854A)
# T1 sequence: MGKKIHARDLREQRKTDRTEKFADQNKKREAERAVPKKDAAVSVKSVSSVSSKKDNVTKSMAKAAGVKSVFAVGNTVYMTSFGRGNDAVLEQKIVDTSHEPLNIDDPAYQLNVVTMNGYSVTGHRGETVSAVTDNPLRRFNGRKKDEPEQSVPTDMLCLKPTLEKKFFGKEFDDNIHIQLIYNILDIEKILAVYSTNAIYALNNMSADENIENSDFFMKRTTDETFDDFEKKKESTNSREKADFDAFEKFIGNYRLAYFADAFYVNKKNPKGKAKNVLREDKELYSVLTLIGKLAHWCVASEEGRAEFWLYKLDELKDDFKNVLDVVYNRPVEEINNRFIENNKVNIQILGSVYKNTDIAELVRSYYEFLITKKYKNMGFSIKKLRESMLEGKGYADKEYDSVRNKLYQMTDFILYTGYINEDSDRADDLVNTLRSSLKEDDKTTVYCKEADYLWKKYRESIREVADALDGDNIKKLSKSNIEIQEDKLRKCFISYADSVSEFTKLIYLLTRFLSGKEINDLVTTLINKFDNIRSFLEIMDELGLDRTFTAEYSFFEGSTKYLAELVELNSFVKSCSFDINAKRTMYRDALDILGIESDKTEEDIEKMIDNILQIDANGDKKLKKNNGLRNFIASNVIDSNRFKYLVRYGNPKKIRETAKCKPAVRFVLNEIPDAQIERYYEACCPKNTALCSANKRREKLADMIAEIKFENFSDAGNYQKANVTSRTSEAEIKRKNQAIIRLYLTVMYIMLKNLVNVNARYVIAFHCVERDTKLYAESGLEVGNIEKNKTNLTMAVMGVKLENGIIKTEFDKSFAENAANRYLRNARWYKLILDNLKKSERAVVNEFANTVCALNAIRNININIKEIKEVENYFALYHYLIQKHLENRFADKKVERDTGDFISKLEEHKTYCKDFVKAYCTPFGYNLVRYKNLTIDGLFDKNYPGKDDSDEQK
# Procedure Details: crRNA (strand 1, pre-loaded); Mg2+; 40 mM Tris-HCl pH 7.5, 150 mM NaCl, 6 mM MgCl2, 1 mM DTT, 0.1% Tween-20, 0.2 mg/ml BSA; 25 C; 10 min per concentration, then washed
# Condition Label: tags: His6-TwinStrep-SUMO cleaved; N-terminal SNAP kept (SNAP-Surface 488); label: 3' end held by stalled T7 RNA polymerase
Please keep in mind that the values are log10 of Kd expressed in nM.

Identify the reported log10 of Kd for the following entry. target 1 U8C,U11G (mixed) RNA 1: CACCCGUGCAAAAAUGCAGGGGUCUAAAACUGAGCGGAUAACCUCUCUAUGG RNA 2: GGGAAUGGAUCCACAUCUACGAAUUCGUACCAUAGAGAGGGUACCCGCUCACCGAGAUCGGAAGAGCACACGU
1.43

Identify the reported log10 of Kd for the following entry. target 2 MT 5'PFS GUG 3'PFS AGC (mixed) RNA 1: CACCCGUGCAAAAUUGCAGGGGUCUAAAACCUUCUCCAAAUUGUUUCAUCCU RNA 2: GGGAAUGGAUCCACAUCUACGAAUUCGUGAGGAUGAAACAAUUUGGAGAAGAGCAGAUCGGAAGAGCACACGU
0.86

Identify the reported log10 of Kd for the following entry. target 1 insG 3' of 4,insC 3' of 1 (mixed) RNA 1: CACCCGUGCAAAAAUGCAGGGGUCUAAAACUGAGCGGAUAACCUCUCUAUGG RNA 2: GGGAAUGGAUCCACAUCUACGAAUUCGUACCAUAGAGAGGUUAUCCGCGUCACCCGAGAUCGGAAGAGCACACGU
1.10

Identify the reported log10 of Kd for the following entry. target 1 insA 3' of 12,insA 3' of 6 (mixed) RNA 1: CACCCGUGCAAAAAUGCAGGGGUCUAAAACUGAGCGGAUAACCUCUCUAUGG RNA 2: GGGAAUGGAUCCACAUCUACGAAUUCGUACCAUAGAGAGGAUUAUCCAGCUCACCGAGAUCGGAAGAGCACACGU
1.57

Identify the reported log10 of Kd for the following entry. target 1 insG 3' of 19,insG 3' of 2 (mixed) RNA 1: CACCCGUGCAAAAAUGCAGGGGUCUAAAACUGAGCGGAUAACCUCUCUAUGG RNA 2: GGGAAUGGAUCCACAUCUACGAAUUCGUACCAUGAGAGAGGUUAUCCGCUCGACCGAGAUCGGAAGAGCACACGU
2.00

Identify the reported log10 of Kd for the following entry. target 1 C2A,G12U (mixed) RNA 1: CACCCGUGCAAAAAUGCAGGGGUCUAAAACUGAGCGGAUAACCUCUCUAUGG RNA 2: GGGAAUGGAUCCACAUCUACGAAUUCGUACCAUAGAGAGUUUAUCCGCUAACCGAGAUCGGAAGAGCACACGU
0.96

Identify the reported log10 of Kd for the following entry. target 1 insG 3' of 20,insC 3' of 20 (mixed) RNA 1: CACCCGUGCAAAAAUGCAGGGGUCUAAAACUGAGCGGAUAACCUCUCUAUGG RNA 2: GGGAAUGGAUCCACAUCUACGAAUUCGUACCAGCUAGAGAGGUUAUCCGCUCACCGAGAUCGGAAGAGCACACGU
1.70

Identify the reported log10 of Kd for the following entry. target 2 MT 5'PFS UAC 3'PFS AAC (mixed) RNA 1: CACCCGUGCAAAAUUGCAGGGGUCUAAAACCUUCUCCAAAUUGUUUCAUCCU RNA 2: GGGAAUGGAUCCACAUCUACGAAUUCUACAGGAUGAAACAAUUUGGAGAAGAACAGAUCGGAAGAGCACACGU
1.04

Identify the reported log10 of Kd for the following entry. target 2 MT 5'PFS AGG 3'PFS UAA (mixed) RNA 1: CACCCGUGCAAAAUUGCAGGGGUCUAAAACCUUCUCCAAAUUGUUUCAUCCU RNA 2: GGGAAUGGAUCCACAUCUACGAAUUCAGGAGGAUGAAACAAUUUGGAGAAGUAAAGAUCGGAAGAGCACACGU
0.69

Identify the reported log10 of Kd for the following entry. target 2 MT 5'PFS UCG 3'PFS CUG (mixed) RNA 1: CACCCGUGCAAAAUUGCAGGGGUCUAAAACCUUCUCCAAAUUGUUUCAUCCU RNA 2: GGGAAUGGAUCCACAUCUACGAAUUCUCGAGGAUGAAACAAUUUGGAGAAGCUGAGAUCGGAAGAGCACACGU
1.60

Identify the reported log10 of Kd for the following entry. target 1 insG 3' of 11,insG 3' of 11 (mixed) RNA 1: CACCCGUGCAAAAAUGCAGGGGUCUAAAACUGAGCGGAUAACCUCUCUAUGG RNA 2: GGGAAUGGAUCCACAUCUACGAAUUCGUACCAUAGAGAGGUGGUAUCCGCUCACCGAGAUCGGAAGAGCACACGU
1.93

Identify the reported log10 of Kd for the following entry. target 1 MT 5'PFS UCC 3'PFS UUG (mixed) RNA 1: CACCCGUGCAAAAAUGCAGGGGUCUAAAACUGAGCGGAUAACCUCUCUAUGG RNA 2: GGGAAUGGAUCCACAUCUACGAAUUCUCCCCAUAGAGAGGUUAUCCGCUCAUUGAGAUCGGAAGAGCACACGU
1.12

Identify the reported log10 of Kd for the following entry. target 1 G13C,A14C (mixed) RNA 1: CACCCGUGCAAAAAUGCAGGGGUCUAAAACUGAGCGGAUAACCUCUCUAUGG RNA 2: GGGAAUGGAUCCACAUCUACGAAUUCGUACCAUAGAGCCGUUAUCCGCUCACCGAGAUCGGAAGAGCACACGU
1.70

Values compiled from paper PMC10786891.
